src = ChEMBL document CHEMBL5724914

assay text: The drug is tested on WLS-310 corresponding to human gut metagenome with ENA study accession number: PRJEB37062 and ENA sample accession number: ERS12561785 for biotransformation under anaerobic condition. The drug concentrations were measured over 9 timepoints collected between 0 and 24 hours of incubation by liquid-chromatography-coupled mass spectrometry (LC–MS); further: call rule not given here
study conditions: 2 µM
readout kind: Bacterial Biotransformation

CCN(CC)C(C)CN1c2ccccc2Sc2ccccc21 (centres undefined) [ETHOPROPAZINE] :: Compound metabolized
CNS(=O)(=O)Cc1ccc2[nH]cc(CCN(C)C)c2c1.O=C(O)CCC(=O)O [SUMATRIPTAN SUCCINATE] :: Compound NOT metabolized
CC(C)(C(=O)O)c1ccc(C(O)CCCN2CCC(C(O)(c3ccccc3)c3ccccc3)CC2)cc1 (centres undefined) [FEXOFENADINE] :: Compound NOT metabolized
CCOC(=O)[C@H](CCc1ccccc1)N[C@@H](C)C(=O)N1[C@H](C(=O)O)C[C@@H]2CCC[C@@H]21 :: Compound metabolized

----------
assay text: The drug is tested on WLS-350 corresponding to human gut metagenome with ENA study accession number: PRJEB37062 and ENA sample accession number: ERS12561789 for biotransformation under anaerobic condition. The drug concentrations were measured over 9 timepoints collected between 0 and 24 hours of incubation by liquid-chromatography-coupled mass spectrometry (LC–MS)
study conditions: 2 µM
Where a SMILES comes first, the peptide text is derived from it. [ ]: non-standard residue; d: D form. pGlu = O=C1CC[C@@H](C(=O)O)N1; Thz = O=C(O)[C@@H]1CSCN1
readout kind: Bacterial Biotransformation

O=C(CCCN1CCC(O)(c2ccc(Cl)cc2)CC1)c1ccc(F)cc1 :: Compound NOT metabolized
COc1ccc2[nH]c([S+]([O-])Cc3ncc(C)c(OC)c3C)nc2n1 (centres undefined) :: Compound NOT metabolized
Nc1c2c(nc3ccccc13)CCCC2 :: Compound NOT metabolized
CC(C)N(CCC(C(N)=O)(c1ccccc1)c1ccccn1)C(C)C.O=P(O)(O)O (centres undefined) [DISOPYRAMIDE PHOSPHATE] :: Compound NOT metabolized
CC(C)NCC(O)COc1ccc(CCOCC2CC2)cc1 (centres undefined) :: Compound NOT metabolized

Please look at the items below and tell me Bacterial Biotransformation for each one, in order.
1. O=C1CC[C@@H](C(=O)N2CSC[C@H]2C(=O)O)N1 [PIDOTIMOD] ([pGlu]-[Thz]-OH)
2. O=C(O)CCc1nc(-c2ccccc2)c(-c2ccccc2)o1
3. CC(=O)O[C@]1(C(C)=O)CC[C@H]2[C@@H]3C=C(Cl)C4=CC(=O)[C@@H]5C[C@@H]5[C@]4(C)[C@H]3CC[C@@]21C [CYPROTERONE ACETATE]
4. O=C1[C@H](CC[C@H](O)c2ccc(F)cc2)[C@@H](c2ccc(O)cc2)N1c1ccc(F)cc1
5. Nc1ccc(/N=N/c2ccccc2)c(N)n1
6. COc1ccc2c(c1OC)C(=O)O[C@@H]2[C@H]1c2c(cc3c(c2OC)OCO3)CCN1C
7. CC(C)c1nc(CN(C)C(=O)N[C@H](C(=O)N[C@@H](Cc2ccccc2)C[C@H](O)[C@H](Cc2ccccc2)NC(=O)OCc2cncs2)C(C)C)cs1
8. CC[C@H](C)C(=O)O[C@H]1C[C@@H](C)C=C2C=C[C@H](C)[C@H](CC[C@@H]3C[C@@H](O)CC(=O)O3)[C@H]21

["Compound NOT metabolized", "Compound metabolized", "Compound metabolized", "Compound NOT metabolized", "Compound metabolized", "Compound metabolized", "Compound NOT metabolized", "Compound NOT metabolized"]

Provide the reported Bacterial Biotransformation of each entry below, same order.
1. CCCc1nc2c(C)cc(-c3nc4ccccc4n3C)cc2n1Cc1ccc(-c2ccccc2C(=O)O)cc1
2. CN1CCc2cccc3c2[C@H]1Cc1ccc(O)c(O)c1-3
3. CN1CCN(C(=O)O[C@H]2c3nccnc3C(=O)N2c2ccc(Cl)cn2)CC1
4. CC(CN(C)C)CN1c2ccccc2CCc2ccccc21.O=C(O)/C=C\C(=O)O (centres undefined) [TRIMIPRAMINE MALEATE]
5. CNS(=O)(=O)Cc1ccc2[nH]cc(CCN(C)C)c2c1.O=C(O)CCC(=O)O [SUMATRIPTAN SUCCINATE]
6. Cc1cc2c(cc1S(N)(=O)=O)S(=O)(=O)CCC2
7. CC(C)NCC(O)c1ccc(NS(C)(=O)=O)cc1 (centres undefined)
8. CC(C)(C(=O)O)c1ccc(C(O)CCCN2CCC(C(O)(c3ccccc3)c3ccccc3)CC2)cc1 (centres undefined) [FEXOFENADINE]

["Compound metabolized", "Compound NOT metabolized", "Compound NOT metabolized", "Compound NOT metabolized", "Compound NOT metabolized", "Compound NOT metabolized", "Compound NOT metabolized", "Compound NOT metabolized"]

----------
assay text: The drug is tested on Z-006 corresponding to mouse gut metagenome with ENA study accession number: PRJEB37062 and ENA sample accession number: ERS12561806 for biotransformation under anaerobic condition. The drug concentrations were measured over 9 timepoints collected between 0 and 24 hours of incubation by liquid-chromatography-coupled mass spectrometry (LC–MS)
study conditions: 2 µM
readout kind: Bacterial Biotransformation

CNCCC(Oc1ccc(C(F)(F)F)cc1)c1ccccc1 (configuration not stated) [FLUOXETINE] :: Compound NOT metabolized
CN1CCc2c(c3ccccc3n2Cc2ccccc2)C1.CN1CCc2c(c3ccccc3n2Cc2ccccc2)C1.O=S(=O)(O)c1cccc2c(S(=O)(=O)O)cccc12 :: Compound NOT metabolized
NC(CO)(CO)CO.O=C(c1ccccc1)c1ccc2n1CCC2C(=O)O (configuration not stated) [KETOROLAC TROMETHAMINE] :: Compound NOT metabolized
CCCC(=O)Nc1ccc(OCC(O)CNC(C)C)c(C(C)=O)c1 (configuration not stated) [ACEBUTOLOL] :: Compound NOT metabolized

Quick batch: Bacterial Biotransformation for everything below.
1. Cc1ccc(-c2nc3ccc(C)cn3c2CC(=O)N(C)C)cc1 [ZOLPIDEM]
2. CC(C)c1nc(CN(C)C(=O)N[C@H](C(=O)N[C@@H](Cc2ccccc2)C[C@H](O)[C@H](Cc2ccccc2)NC(=O)OCc2cncs2)C(C)C)cs1 [RITONAVIR]
3. COc1ccccc1N1CCN(CC(O)COc2cccc3ccccc23)CC1 (configuration not stated) [NAFTOPIDIL]
4. OCCN1CCN(CCCN2c3ccccc3Sc3ccc(C(F)(F)F)cc32)CC1 [FLUPHENAZINE]
5. CC(CN(C)C)CN1c2ccccc2CCc2ccccc21.O=C(O)/C=C\C(=O)O (configuration not stated) [TRIMIPRAMINE MALEATE]

Compound NOT metabolized
Compound metabolized
Compound NOT metabolized
Compound metabolized
Compound NOT metabolized

For every item below, please supply its Bacterial Biotransformation.
1. COC(=O)[C@H]1[C@H]2C[C@@H]3c4[nH]c5cc(OC)ccc5c4CCN3C[C@H]2C[C@@H](OC(=O)c2cc(OC)c(OC)c(OC)c2)[C@@H]1OC [RESERPINE]
2. OC(Cn1cncn1)(Cn1cncn1)c1ccc(F)cc1F [FLUCONAZOLE]
3. COc1cc2nc(N(C)CCCNC(=O)C3CCCO3)nc(N)c2cc1OC (configuration not stated) [ALFUZOSIN]
4. C[C@@H]1CC[C@H]2[C@@H](C)C(=O)O[C@@H]3O[C@@]4(C)CC[C@@H]1[C@]32OO4 [ARTEMISININ]
5. Cc1ccc(S(=O)(=O)NC(=O)NN2CCCCCC2)cc1 [TOLAZAMIDE]
6. CN1C(C(=O)Nc2ccccn2)=C(O)c2sccc2S1(=O)=O [TENOXICAM]

["Compound NOT metabolized", "Compound NOT metabolized", "Compound NOT metabolized", "Compound NOT metabolized", "Compound metabolized", "Compound NOT metabolized"]

Look up Bacterial Biotransformation for the entries below, preserving their order.
1. COC1=CC(=O)C[C@@H](C)[C@]12Oc1c(Cl)c(OC)cc(OC)c1C2=O [GRISEOFULVIN]
2. CN1CCC(=C2c3ccccc3CCc3cccnc32)CC1.O=C(O)/C=C\C(=O)O.O=C(O)/C=C\C(=O)O [AZATADINE MALEATE]

["Compound metabolized", "Compound NOT metabolized"]

----------
assay text: The drug is tested on WLS-077 corresponding to human gut metagenome with ENA study accession number: PRJEB37062 and ENA sample accession number: ERS12561750 for biotransformation under anaerobic condition. The drug concentrations were measured over 9 timepoints collected between 0 and 24 hours of incubation by liquid-chromatography-coupled mass spectrometry (LC–MS)
study conditions: 2 µM
readout kind: Bacterial Biotransformation

Please review the following examples before continuing.
COC(=O)[C@H]1[C@H]2C[C@@H]3c4[nH]c5cc(OC)ccc5c4CCN3C[C@H]2C[C@@H](OC(=O)c2cc(OC)c(OC)c(OC)c2)[C@@H]1OC :: Compound NOT metabolized
CCN1CCCC1CNC(=O)c1cc(S(N)(=O)=O)ccc1OC (centres undefined) [SULPIRIDE] :: Compound metabolized
CC(O)(CS(=O)(=O)c1ccc(F)cc1)C(=O)Nc1ccc(C#N)c(C(F)(F)F)c1 (centres undefined) [BICALUTAMIDE] :: Compound NOT metabolized
CCCCCOC(=O)Nc1nc(=O)n([C@@H]2O[C@H](C)[C@@H](O)[C@H]2O)cc1F :: Compound metabolized

Take each entry in turn and give its Bacterial Biotransformation.
1. COC(=O)Nc1nc2ccc(C(=O)c3ccccc3)cc2[nH]1
2. Cc1nc2n(c(=O)c1CCN1CCC(c3noc4cc(F)ccc34)CC1)CCCC2O (centres undefined)
3. O=c1n(CCCN2CCN(c3cccc(Cl)c3)CC2)nc2ccccn12
4. CC(=O)CC(c1ccccc1)c1c(O)c2ccccc2oc1=O (centres undefined)

Compound metabolized
Compound metabolized
Compound NOT metabolized
Compound metabolized

Give Bacterial Biotransformation for all compounds that follow.
1. C#C[C@]1(O)CC[C@H]2[C@@H]3CCC4=CC(=O)CC[C@@H]4[C@H]3CC[C@@]21CC
2. Cc1ccc(S(=O)(=O)NC(=O)NN2CCCCCC2)cc1 [TOLAZAMIDE]
3. O=P(O)(O)O.c1ccc(CN(CC2=NCCN2)c2ccccc2)cc1 [ANTAZOLINE PHOSPHATE]
4. CN(C)CCC=C1c2ccccc2C=Cc2ccccc21
5. CN(C)C(=O)C(CCN1CCC(O)(c2ccc(Cl)cc2)CC1)(c1ccccc1)c1ccccc1 [LOPERAMIDE]

Compound metabolized
Compound metabolized
Compound NOT metabolized
Compound NOT metabolized
Compound metabolized
